Target: T1, Human CD3eg linker (human)
T1 construct: Single-chain construct; also called recombinant human CD3
T1 chain: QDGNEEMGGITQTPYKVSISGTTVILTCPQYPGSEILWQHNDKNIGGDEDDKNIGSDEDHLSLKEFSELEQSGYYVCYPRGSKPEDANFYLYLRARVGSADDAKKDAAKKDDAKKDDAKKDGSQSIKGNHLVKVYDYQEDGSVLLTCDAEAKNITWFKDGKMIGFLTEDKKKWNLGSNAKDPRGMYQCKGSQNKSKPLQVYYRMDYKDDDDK
Experiment: SPR; fold vs parent H183/L072
Field: fold change of affinity. Provide a value for each of the binders that follow.
All answers are understood in fold, so give the number only.

Record H183/L072 VL S52E (antibody, name in Kabat numbering, V domains shown) VH: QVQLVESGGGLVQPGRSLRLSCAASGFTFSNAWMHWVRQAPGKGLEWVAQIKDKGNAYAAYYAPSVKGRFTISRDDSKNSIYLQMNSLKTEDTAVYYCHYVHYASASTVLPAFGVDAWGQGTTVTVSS VL: DIVMTQSPLSLPVTPGEPASISCQASQELVHMNRNTYLHWYQQKPGQAPRLLIYKVENRFPGVPDRFSGSGSGTDFTLKISRVEAEDVGVYYCAQGTSVPFTFGQGTKLEIK , field fold change of affinity: 1

Record H183/L072 VL R54N (antibody, name in Kabat numbering, V domains shown) VH: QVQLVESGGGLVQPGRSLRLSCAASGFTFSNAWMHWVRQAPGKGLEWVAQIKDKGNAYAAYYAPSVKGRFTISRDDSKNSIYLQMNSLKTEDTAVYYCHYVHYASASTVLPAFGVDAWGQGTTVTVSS VL: DIVMTQSPLSLPVTPGEPASISCQASQELVHMNRNTYLHWYQQKPGQAPRLLIYKVSNNFPGVPDRFSGSGSGTDFTLKISRVEAEDVGVYYCAQGTSVPFTFGQGTKLEIK , field fold change of affinity: 1

Record H183/L072 VL P95H (antibody, name in Kabat numbering, V domains shown) VH: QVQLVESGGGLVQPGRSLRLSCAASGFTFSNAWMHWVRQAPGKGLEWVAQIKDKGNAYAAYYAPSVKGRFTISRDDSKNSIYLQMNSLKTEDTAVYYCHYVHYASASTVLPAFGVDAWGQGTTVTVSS VL: DIVMTQSPLSLPVTPGEPASISCQASQELVHMNRNTYLHWYQQKPGQAPRLLIYKVSNRFPGVPDRFSGSGSGTDFTLKISRVEAEDVGVYYCAQGTSVHFTFGQGTKLEIK , field fold change of affinity: 0

From: patent US20210388087A1
